- ASSAY_EXPLANATION: Pharmacokinetics (tmax) after intravenous and nebulizer inhalation administration, dog
- Type: in vivo
- CONDITION_SET: blood, inhaled or intranasal, 5 mg/kg, inhalation, 5 mg/kg, 20 minutes exposure, multiple dose (14 day), read-out: Average tmax (converted)
ENDPOINT: Tmax at 14 day (min)

[[record]]
substance_smiles = "CCCCCc1cc(O)c2c(c1)OC(C)(C)[C@@H]1CCC(C)=C[C@@H]21"
test_value = 22.2


====

- ASSAY_EXPLANATION: Pharmacokinetics (tmax) after intravenous and nebulizer inhalation administration, rat
- Type: in vivo
- CONDITION_SET: blood, inhaled or intranasal, 2 mg/kg, inhalation, 2 mg/kg, 5 minutes exposure, multiple dose (14 day), read-out: Average tmax (converted)
ENDPOINT: Tmax at 14 day (min)

[[record]]
substance_smiles = "CCCCCc1cc(O)c2c(c1)OC(C)(C)[C@@H]1CCC(C)=C[C@@H]21"
value_unit = "min"
test_value = 6

